This collection of values is drawn from patent US20100022559A1.

Answer each item with its documented logP.
method.description: logP determination by HPLC on a reversed-phase column (C 18), EEC Directive 79/831 Annex V.A8
Type: physicochemical
assay.conditions: value marked [b]

{"columns": ["compound", "logP"],
 "data": [
  ["CC(=NOCCCCCCON=C(C)c1nccc(C)n1)c1cccc(C)n1 [Compound 509]", "3.39^[b]"]
]}

Required: logP, one value per compound below.
1. COc1ccc(C(C)=NOCCCCCCON=C(C)c2cccc(C)n2)cc1OC [compound 392]
2. CC(=NOCCCCCCON=C(C)c1cccc(C)n1)c1cc(C)ccn1 [compound 386]
3. C=CCCC(=NOCCCCCCON=C(C)c1cccc(C)n1)c1ncccc1C (single isomer, unassigned) [compound 523]
4. C=C(CON=C(C)c1cncc(C)c1)CON=C(C)c1cccc(C)n1 [compound 361]
5. C=C(CON=C(C)c1cccc(C)n1)CON=C(C)c1cncc(C)n1 [compound 480]
6. C=C(CON=C(C)c1ccnc(C)c1)CON=C(C)c1cccc(C)n1 (single isomer, unassigned) [compound 533]
7. CC(=NOCC(C)CON=C(C)c1cccc(C)n1)c1ccc(Cl)cc1 (centres unmarked) [compound 496]

1. 4.91^[b]
2. 3.94^[b]
3. 4.91^[b] (isomer A)
4. 2.20^[b]
5. 3.46^[b]
6. 1.74^[b] (isomer A)
7. 5.78^[b]

Required: logP, one value per compound below.
1. CC(=NOC/C=C/CON=C(C)c1cccc(C)n1)c1cccc(C)n1 [Compound 777]
2. CC(=NOCC(C)CON=C(C)c1cccc(C)n1)c1cccc(C(F)(F)F)c1 (centres unmarked) [compound 433]
3. CC(=NOCC(C)CON=C(C)c1ccnc(C)n1)c1cccc(C)n1 (centres unmarked) [compound 430]

1: 2.89^[b]; 2: 5.71^[b]; 3: 3.56^[b]

Required: logP, one value per compound below.
1. COCc1cc(C)nc(C(C)=NOCC(C)CON=C(C)c2cc(COC)cc(C)n2)c1 (centres unmarked) [Compound 871]
2. C=C(CON=C(C)c1cccc(C)n1)CON=C(CCC)c1ncccc1C (single isomer, unassigned) [compound 534]
3. C=C(CON=C(C)c1cccc(COC)n1)CON=C(C)c1cccc(COC)n1 [compound 291]

1. 4.06^[b]
2. 3.65^[b] (isomer A)
3. 4.44^[b]

Required: logP, one value per compound below.
1. CC(=NOCC1(CON=C(C)c2nc(C)ccc2C)CCCC1)c1nc(C)ccc1C (single isomer, unassigned) [Compound 763]
2. CC(=NOCCCCON=C(C)c1cccc(CC(C)C)n1)c1cccc(C)n1 [compound 326]
3. C=C(CON=C(C#CC)c1cccc(C)n1)CON=C(C#CC)c1cccc(C)n1 [compound 803]

1. 4.76^[b]
2. 6.16^[b]
3. 3.07^[b]

* * *

method.description: logP determination by HPLC on a reversed-phase column (C 18), EEC Directive 79/831 Annex V.A8
Format: physicochemical
assay.conditions: method marker [b]; isomer A / isomer B / isomer mixture as noted in the cell
measure: logP

Example compounds with recorded logP:
{"columns": ["compound", "measured"],
 "data": [
  ["C=C(CON=C(C)c1cccc(C)n1)CON=C(N)c1ccc(C)n1C", "2.23^[b]"],
  ["C=C(CON=C(C)c1cccc(C)n1)CON=C(N)c1cccc(C)n1", "2.75^[b]"],
  ["C/C(=N\\OCCOCOCCO/N=C(\\C)c1cccc(C)n1)c1cccc(C)n1", "2.02^[b]"]
]}

Required: logP, one value per compound below.
1. CC(=NOCCCON=C(C)c1cnc(-c2ccccc2)s1)c1cnc(-c2ccccc2)s1
2. CC(=NOC(C)CC(C)ON=C(C)c1cccc(C)n1)c1cccc(C)n1 (centres unmarked)

["7.07^[b]", "4.10^[b]"]
